What pIC50 was measured for each of the following?
molecular target: CDK2/Cyclin E1 (Homo sapiens); assay: CDK2/Cyclin E1 Biochemical Assay (TR-FRET), 0.060 mM ATP; conditions: 0.15 μM Rb (Ser780)-biotin substrate, pH7.0, 60 min preincubation, 120 min reaction, room temperature
Answers are plain numbers, as −log10 of the molar value.

{"COMPOUND": "COCCN1c2ccc(Nc3cc([C@@H]4CC[C@H](OC(=O)NC(C)C)C4)[nH]n3)c(F)c2CS1(=O)=O (relative stereo) [Example 252]", "pIC50": 8.42}

Give one value of pIC50 per listed compound.
1. Cc1c(Nc2cc([C@@H]3CC[C@H](OC(=O)NC(C)C)C3)[nH]n2)ccc2c1CNS2(=O)=O (relative stereo) [Example 34]
2. CN1c2ccc(Nc3cc([C@H]4CC[C@@H](OC(=O)NC(C)(C)C)C4)[nH]n3)cc2CS1(=O)=O [Example 391a]

[out]
8.72
9.15

----------
Molecular target: CDK2/Cyclin E1 (Homo sapiens)
Experiment: CDK2/Cyclin E1 Biochemical Assay (TR-FRET), 1 mM ATP
Settings: 0.15 μM Rb (Ser780)-biotin substrate, pH7.0, 60 min preincubation, 90 min reaction, room temperature
Method: CDK2/Cyclin E1 and CDK1/Cyclin B1 Biochemical Assays Compounds disclosed herein were tested for inhibition of CDK2/Cyclin E1 or CDK1/Cyclin B1 kinase in an assay based on the time-resolved fluorescence-resonance energy transfer (TR-FRET) methodology. […] Plates were incubated at room temperature for 60 minutes, and the TR-FRET signals (ex337 nm, em665 nm/620 nm) were recorded on a PHERAstar FSX plate reader (BMG Labtech). […]
What IC50 was measured for each of the following?

Give one value of IC50 per listed compound.
1. CC(C)(C)NC(=O)O[C@H]1CC[C@@H](c2cc(Nc3ccc4c(c3F)CCS(=O)(=O)N4)n[nH]2)C1
2. CCC(=O)CNC(=O)O[C@H]1CC[C@@H](c2cc(Nc3ccc4c(c3F)CS(=O)(=O)N4)n[nH]2)C1 (relative stereo)
3. [2H]C([2H])([2H])N1c2ccc(Nc3cc([C@@H]4CC[C@H](OC(=O)NC(C)(C)C)C4)[nH]n3)cc2CS1(=O)=O (relative stereo)
4. CC(C)(C)NC(=O)O[C@@H]1CC[C@H](c2cc(Nc3ccc4c(c3F)CCS(=O)(=O)N4)n[nH]2)C1

[out]
1. 0.4 nM
2. 23 nM
3. 0.5 nM
4. 0.8 nM

----------
biological target: CDK1/Cyclin B1 (Homo sapiens, UniProt P06493); assay: CDK1/Cyclin B1 Biochemical Assay (TR-FRET), 0.015 mM ATP; details: 0.15 μM Rb (Ser780)-biotin substrate, pH7.0, 60 min preincubation, 120 min reaction, room temperature
Sequence (P06493 whole entry): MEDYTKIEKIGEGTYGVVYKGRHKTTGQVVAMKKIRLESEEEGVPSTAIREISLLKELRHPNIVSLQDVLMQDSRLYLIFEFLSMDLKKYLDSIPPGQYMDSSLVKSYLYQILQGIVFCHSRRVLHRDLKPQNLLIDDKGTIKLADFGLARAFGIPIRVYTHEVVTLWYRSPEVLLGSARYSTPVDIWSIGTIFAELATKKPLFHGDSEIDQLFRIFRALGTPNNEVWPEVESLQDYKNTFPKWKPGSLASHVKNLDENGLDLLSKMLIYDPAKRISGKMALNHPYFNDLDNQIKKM
Sequence (P14635 whole entry partner): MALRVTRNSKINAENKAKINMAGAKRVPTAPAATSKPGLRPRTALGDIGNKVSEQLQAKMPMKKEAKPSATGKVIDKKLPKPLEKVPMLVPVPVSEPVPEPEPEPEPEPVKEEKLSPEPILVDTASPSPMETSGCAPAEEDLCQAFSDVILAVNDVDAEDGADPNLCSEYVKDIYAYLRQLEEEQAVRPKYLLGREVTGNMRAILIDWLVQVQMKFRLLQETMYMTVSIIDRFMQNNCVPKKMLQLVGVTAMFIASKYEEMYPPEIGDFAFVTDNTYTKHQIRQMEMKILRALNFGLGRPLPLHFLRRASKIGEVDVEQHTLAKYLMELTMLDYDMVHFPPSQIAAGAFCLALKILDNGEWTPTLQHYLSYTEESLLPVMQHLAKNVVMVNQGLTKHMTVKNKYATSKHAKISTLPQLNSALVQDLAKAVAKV
MEASURED_METRIC: IC50 (nM)
Give bare numbers, in nM.

{"COMPOUND": "CN1c2ccc(Nc3cc([C@@H]4CC[C@H](OC(=O)NC5COC5)C4)[nH]n3)cc2CS1(=O)=O (relative stereo)", "IC50 (nM)": 320}
{"COMPOUND": "CC(C)NC(=O)O[C@H]1CC[C@@H](c2cc(Nc3ccc4c(c3)CC(=O)NS4(=O)=O)n[nH]2)C1 (relative stereo)", "IC50 (nM)": 183}

# next compound below
[in] Reported IC50 for CDK1/Cyclin B1 (Homo sapiens, UniProt P06493), given Cc1cc(Nc2cc([C@@H]3CC[C@H](OC(=O)NC(C)C)C3)[nH]n2)cc2c1S(=O)(=O)NC2 (relative stereo) ?
[out] 60
